Endpoint: melting point

Cc1nc(-c2ccc3c(c2)CCCC3)c(CCC(=O)O)o1 = 135 to 136 °C
COc1cccc(Oc2c(NS(=O)(=O)c3ccc(C(C)(C)C)cc3)ncnc2OCCOc2ccncn2)c1 = 149 to 150 °C
O=C(NC(=O)C(Br)CBr)Nc1ccccc1 (configuration not stated) = 160 to 161 °C
CCOC(=O)c1c(C(F)(F)F)nc(C(F)F)c(CO)c1CC = 59.5 to 60.5 °C
Cc1ccc(N2CCN(c3c(C)c(O)c4c(c3C)CC(C)(C)O4)CC2)cc1 = 185 to 189 °C

// query Query (molecule): COC1=C(OC)C(=Nc2ccccc2)NC1=O ; field requested: melting point
// result 141 to 143 °C

// query Continue with Cc1cnc(NC(=O)C(Cc2ccc(F)cc2)c2ccc(S(C)(=O)=O)cc2)cn1 (configuration not stated)
// result 172 to 175 °C

// query Also need Cc1c(CCC(=O)O)c2cc(Cl)ccc2n1Cc1ccc(Br)cc1 , thanks.
// result 154 to 155 °C

// query Repeat with C#CCn1c(=O)n(C)c2ccccc21
// result 110 to 112 °C

// query And then COc1cc(CCC(=O)O)cc(I)c1O , what is it?
// result 96 to 97 °C
